Here, each record is paired with measured SI (MAO-B compared with MAO-A) data.
molecular target: MAO-B (Homo sapiens, UniProt P27338); experiment: MAO-B inhibition, recombinant enzyme, benzylamine substrate; format: biochemical; settings: IC50 (MAO-A)/IC50 (MAO-B)

compound.string	measured.on	SI (MAO-B compared with MAO-A)
COc1ccc(/C=C/C=C/C(=O)c2ccc(F)cc2)cc1	MAO-B (Homo sapiens, UniProt P27338)	1780.5
O=C(/C=C/C=C/c1ccc([N+](=O)[O-])cc1)c1ccc(Br)cc1	MAO-B (Homo sapiens, UniProt P27338)	481.0
O=C(/C=C/C=C/c1ccc(Br)cc1)c1ccc(Br)cc1	MAO-B (Homo sapiens, UniProt P27338)	1400.0
O=C(/C=C/C=C/c1ccc(F)cc1)c1ccc(Cl)cc1	MAO-B (Homo sapiens, UniProt P27338)	1609.8
O=C(/C=C/C=C/c1ccc([N+](=O)[O-])cc1)c1ccccc1	MAO-B (Homo sapiens, UniProt P27338)	1025.8
COc1ccc(/C=C/C=C/C(=O)c2ccc(Br)cc2)cc1	MAO-B (Homo sapiens, UniProt P27338)	1443.8
O=C(/C=C/C=C/c1ccc(Br)cc1)c1ccc(Cl)cc1	MAO-B (Homo sapiens, UniProt P27338)	232.4
O=C(/C=C/C=C/c1ccc([N+](=O)[O-])cc1)c1ccc(Cl)cc1	MAO-B (Homo sapiens, UniProt P27338)	4783.0
O=C(/C=C/C=C/c1ccc([N+](=O)[O-])cc1)c1ccc(F)cc1	MAO-B (Homo sapiens, UniProt P27338)	5635.2
O=C(/C=C/C=C/c1ccccc1)c1ccc(Cl)cc1	MAO-B (Homo sapiens, UniProt P27338)	1498.2

* * *

Reported remaining activity at 1 µM values for a set of molecules
biological target: MAO-B (Homo sapiens, UniProt P27338); assay: MAO-B inhibition, recombinant enzyme, benzylamine substrate; assay type: biochemical; details: read-out: residual activity (%) MAO-B

compound.string	unit.abbrev	remaining activity at 1 µM
O=C(/C=C/C=C/c1ccc(Br)cc1)c1ccc(Cl)cc1	%	14.3
O=C(/C=C/C=C/c1ccc(Br)cc1)c1ccc(Br)cc1	%	8.9
O=C(/C=C/C=C/c1ccc([N+](=O)[O-])cc1)c1ccc(Br)cc1	%	3.4
O=C(/C=C/C=C/c1ccc([N+](=O)[O-])cc1)c1ccc(Cl)cc1	%	5.81
COc1ccc(/C=C/C=C/C(=O)c2ccc(Cl)cc2)cc1	%	5.81
O=C(/C=C/C=C/c1ccc([N+](=O)[O-])cc1)c1ccccc1	%	-3.52
O=C(/C=C/C=C/c1ccc([N+](=O)[O-])cc1)c1ccc(F)cc1	%	1.95
COc1ccc(/C=C/C=C/C(=O)c2ccc(Br)cc2)cc1	%	7.85
O=C(/C=C/C=C/c1ccccc1)c1ccc(Cl)cc1	%	2.17
O=C(/C=C/C=C/c1ccc(F)cc1)c1ccc(Cl)cc1	%	1.61
O=C(/C=C/C=C/c1ccc(Br)cc1)c1ccc(F)cc1	%	3.45
O=C(/C=C/C=C/c1ccc(F)cc1)c1ccc(Br)cc1	%	2.6
COc1ccc(/C=C/C=C/C(=O)c2ccccc2)cc1	%	-0.95
COc1ccc(/C=C/C=C/C(=O)c2ccc(F)cc2)cc1	%	-2.71

* * *

molecular target: MAO-B (Homo sapiens); experiment: MAO-B inhibition, recombinant enzyme, benzylamine substrate; format: biochemical; conditions: IC50 (MAO-A)/IC50 (MAO-B)

compound.string	SI (MAO-B compared with MAO-A)
COc1ccc(/C=C/C=C/C(=O)c2ccc(Cl)cc2)cc1	1290.2
COc1ccc(/C=C/C=C/C(=O)c2ccccc2)cc1	3871.5
O=C(/C=C/C=C/c1ccc(Br)cc1)c1ccc(F)cc1	1394.7
O=C(/C=C/C=C/c1ccc(F)cc1)c1ccc(Br)cc1	1671.7

* * *

molecular target: BACE1 (Homo sapiens, UniProt P56817); experiment: biochemical; details: read-out: residual activity (%) BACE1
Sequence (P56817 46-501): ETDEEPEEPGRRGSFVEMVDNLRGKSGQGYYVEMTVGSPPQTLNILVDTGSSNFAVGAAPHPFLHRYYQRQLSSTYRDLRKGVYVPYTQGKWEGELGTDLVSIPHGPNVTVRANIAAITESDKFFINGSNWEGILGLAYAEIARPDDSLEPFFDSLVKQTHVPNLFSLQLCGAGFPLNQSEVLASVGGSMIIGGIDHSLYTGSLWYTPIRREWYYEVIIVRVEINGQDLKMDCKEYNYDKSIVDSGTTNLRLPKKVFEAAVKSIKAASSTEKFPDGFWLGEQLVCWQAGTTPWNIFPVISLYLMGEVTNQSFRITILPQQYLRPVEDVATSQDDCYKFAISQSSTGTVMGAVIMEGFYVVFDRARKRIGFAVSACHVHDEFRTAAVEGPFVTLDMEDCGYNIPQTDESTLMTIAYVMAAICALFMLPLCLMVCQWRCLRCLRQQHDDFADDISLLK
Examples of molecules with documented remaining activity at 10 µM follow.

molecule	remaining activity at 10 µM, %
O=C(/C=C/C=C/c1ccccc1)c1ccc(Br)cc1 [MK6]	74.1
COc1ccc(/C=C/C=C/C(=O)c2ccccc2)cc1 [MK14]	77.3
O=C(/C=C/C=C/c1ccc([N+](=O)[O-])cc1)c1ccc(F)cc1 [MK13]	76.7
O=C(/C=C/C=C/c1ccc(Br)cc1)c1ccc(Br)cc1 [MK7]	84.5
O=C(/C=C/C=C/c1ccc(Br)cc1)c1ccc(F)cc1 [MK11]	71.4
COc1ccc(/C=C/C=C/C(=O)c2ccc(Br)cc2)cc1 [MK8]	80.9
O=C(/C=C/C=C/c1ccc(F)cc1)c1ccc(Cl)cc1 [MK4]	72.5
COc1ccc(/C=C/C=C/C(=O)c2ccc(F)cc2)cc1 [MK12]	81.4
O=C(/C=C/C=C/c1ccc([N+](=O)[O-])cc1)c1ccc(Br)cc1 [MK10]	69.4
COc1ccc(/C=C/C=C/C(=O)c2ccc(Cl)cc2)cc1 [MK3]	84.8
O=C(/C=C/C=C/c1ccc([N+](=O)[O-])cc1)c1ccc(Cl)cc1 [MK5]	73.3
O=C(/C=C/C=C/c1ccccc1)c1ccc(Cl)cc1 [MK1]	77.1
O=C(/C=C/C=C/c1ccc(Br)cc1)c1ccc(Cl)cc1 [MK2]	81.4
O=C(/C=C/C=C/c1ccc(F)cc1)c1ccc(Br)cc1 [MK9]	65
O=C(/C=C/C=C/c1ccc([N+](=O)[O-])cc1)c1ccccc1 [MK15]	89.5

* * *

Biological target: MAO-B (Homo sapiens, UniProt P27338)
Sequence (P27338 1-520): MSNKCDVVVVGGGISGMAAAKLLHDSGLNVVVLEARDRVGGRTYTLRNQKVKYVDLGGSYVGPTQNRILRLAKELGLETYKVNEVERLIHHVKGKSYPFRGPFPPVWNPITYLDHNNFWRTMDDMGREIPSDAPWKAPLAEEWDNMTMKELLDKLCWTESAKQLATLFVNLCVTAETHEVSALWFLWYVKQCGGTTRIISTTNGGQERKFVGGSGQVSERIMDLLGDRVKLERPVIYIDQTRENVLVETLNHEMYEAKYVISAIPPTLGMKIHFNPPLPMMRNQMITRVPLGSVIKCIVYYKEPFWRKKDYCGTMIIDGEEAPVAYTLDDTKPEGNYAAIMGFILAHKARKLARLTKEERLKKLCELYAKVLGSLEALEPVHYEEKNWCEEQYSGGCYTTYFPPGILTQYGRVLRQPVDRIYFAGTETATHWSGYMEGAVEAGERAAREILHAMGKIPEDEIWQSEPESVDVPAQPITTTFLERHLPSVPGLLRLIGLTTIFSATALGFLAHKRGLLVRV
Assay: MAO-B inhibition, recombinant enzyme, benzylamine substrate
Conditions: IC50 MAO-B
pIC50: −log10 of the molar value.
Please use label 1 whenever pIC50 is not below 8, and label 0 whenever it is.

compound.string	cat
O=C(/C=C/C=C/c1ccc([N+](=O)[O-])cc1)c1ccc(Br)cc1	label 0
O=C(/C=C/C=C/c1ccc([N+](=O)[O-])cc1)c1ccc(F)cc1	label 1
O=C(/C=C/C=C/c1ccc(Br)cc1)c1ccc(F)cc1	label 0

* * *

Target: MAO-B (Homo sapiens)
Sequence (P27338 1-520): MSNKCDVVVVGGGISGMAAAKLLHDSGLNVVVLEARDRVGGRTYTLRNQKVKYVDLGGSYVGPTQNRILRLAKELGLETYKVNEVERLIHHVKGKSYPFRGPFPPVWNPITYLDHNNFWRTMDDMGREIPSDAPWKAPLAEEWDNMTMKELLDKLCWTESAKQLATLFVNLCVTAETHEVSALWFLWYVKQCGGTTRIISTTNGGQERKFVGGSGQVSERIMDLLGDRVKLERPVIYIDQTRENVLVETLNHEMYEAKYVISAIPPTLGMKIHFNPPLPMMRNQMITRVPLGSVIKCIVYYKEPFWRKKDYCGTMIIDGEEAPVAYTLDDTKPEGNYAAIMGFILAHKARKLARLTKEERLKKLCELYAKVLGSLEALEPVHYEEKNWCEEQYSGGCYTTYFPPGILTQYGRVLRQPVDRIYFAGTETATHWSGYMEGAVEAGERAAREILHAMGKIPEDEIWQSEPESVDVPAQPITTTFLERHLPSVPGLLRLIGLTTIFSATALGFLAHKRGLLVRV
pKi: −log10 of the molar value.

compound.string	measured.on	pKi
COc1ccc(/C=C/C=C/C(=O)c2ccc(F)cc2)cc1	MAO-B (Homo sapiens)	8.52

* * *

tested on: Vero cells; experiment: Cytotoxicity on Vero cells, MTT method; type: cell-based, African green monkey; conditions: 100 μg/mL, 24 h
readout.name: toxicity by cellular morphology, phase-contrast microscopy

compound.string	reported.value
O=C(/C=C/C=C/c1ccccc1)c1ccc(Br)cc1	no signs of toxicity
COc1ccc(/C=C/C=C/C(=O)c2ccccc2)cc1	no signs of toxicity
O=C(/C=C/C=C/c1ccc([N+](=O)[O-])cc1)c1ccc(Cl)cc1	no signs of toxicity
